Assay: Pharmacokinetic (PK) assay in mice
Type: in vivo
Conditions: mouse, plasma; IV 1 mg/kg, CD-1 mice
Item-by-item account of Cmax
Quick reminder: number only, in ng/mL, skip the unit.

Worked examples follow.
In [3]: df
Out[3]:
                                   compound  experimental_readout  observed
0  COC[C@H](C(=O)Nc1cc(Cl)c(-c2ccc(S(=O)(=O)C3CC3)cc2)c(Cl)c1)c1ccc(S(C)(=O)=O)cc1 (single isomer, unassigned) [Example 35]                  Cmax      1340
1  COCC(C(=O)Nc1cc(Cl)c(-c2ccc(S(=O)(=O)C3CC3)cc2)c(Cl)c1)c1ccc(S(C)(=O)=O)cc1 (centres unmarked) [Example 20]                  Cmax      1160
2  CCS(=O)(=O)c1ccc(C(COC)C(=O)Nc2cc(Cl)c(-c3ccc(S(C)(=O)=O)cc3)c(Cl)c2)cc1 (centres unmarked) [Example 15]                  Cmax      1440
3  CS(=O)(=O)c1ccc(CC(=O)Nc2cc(Cl)c(-c3ccc(S(=O)(=O)C4CC4)cc3)c(Cl)c2)cc1 [Example 11]                  Cmax       709
4  CC(C)(C[C@H]1CN(S(=O)(=O)c2cccc(C(F)(F)F)c2)c2cc(-c3cc(F)cc(OC(F)F)c3)ccc2O1)C(=O)O [LYC-55716, reference compound]                  Cmax       353
5  CCS(=O)(=O)c1ccc(CC(=O)Nc2cc(Cl)c(-c3ccc(S(=O)(=O)C4CC4)cc3)c(Cl)c2)nc1 [Example 21]                  Cmax       716

Param item = COCC(C(=O)Nc1ccc(-c2ccc(S(=O)(=O)C3CC3)cc2)c(C(F)(F)F)c1)c1ccc(S(C)(=O)=O)cc1 (single isomer, unassigned) [Example 43] ; retrieve measured Cmax.
787

Similarly, CCS(=O)(=O)c1ccc(C(CO)C(=O)Nc2cc(Cl)c(-c3ccc(S(=O)(=O)C4CC4)cc3)c(Cl)c2)cc1 (single isomer, unassigned) [Example 39] ?
1080

Similarly, CS(=O)(=O)c1ccc(C(CO)C(=O)Nc2cc(Cl)c(-c3ccc(S(=O)(=O)C4CC4)cc3)c(Cl)c2)cc1 (single isomer, unassigned) [Example 37] ?
1320

Similarly, CCS(=O)(=O)c1ccc(CC(=O)Nc2cc(Cl)c(-c3ccc(S(C)(=O)=O)cc3)c(Cl)c2)cc1 [Example 2] ?
737

Similarly, CCS(=O)(=O)c1ccc(-c2c(Cl)cc(NC(=O)C(COC)c3ccc(S(=O)(=O)CC)cc3)cc2Cl)cc1 (centres unmarked) [Example 13] ?
1320
